Provide the reported IC50 of each item.
Target: Asp-2 (Homo sapiens)
Sequence (P56817 46-501): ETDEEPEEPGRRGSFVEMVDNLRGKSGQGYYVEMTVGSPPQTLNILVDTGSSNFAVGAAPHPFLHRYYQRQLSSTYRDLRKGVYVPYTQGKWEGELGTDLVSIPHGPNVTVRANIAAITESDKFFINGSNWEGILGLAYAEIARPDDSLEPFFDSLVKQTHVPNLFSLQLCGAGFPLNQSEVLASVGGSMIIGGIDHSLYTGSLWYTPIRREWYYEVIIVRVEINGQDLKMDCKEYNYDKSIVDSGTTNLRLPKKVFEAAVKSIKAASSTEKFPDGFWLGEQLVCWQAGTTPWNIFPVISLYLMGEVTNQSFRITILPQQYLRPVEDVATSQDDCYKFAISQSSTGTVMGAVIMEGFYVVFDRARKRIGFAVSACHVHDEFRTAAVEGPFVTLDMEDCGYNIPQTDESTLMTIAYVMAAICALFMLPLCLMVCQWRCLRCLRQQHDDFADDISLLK
Experiment: Asp-2 inhibitory assay
Assay type: biochemical
Settings: FAM-[[…]]-TAMRA substrate, pH 4.5, 1 h room temperature; read-out: inhibition in the Asp-2 inhibitory assay
Procedure: (I) Asp-2 Inhibitory Assay For each compound being assayed, in a 384 well plate, is added: This is prepared by diluting 2 ml of a 2 mM DMSO solution of the substrate into 400 ml of buffer (100 mM Sodium acetate pH=4.5, 1 l Milli-Q water, 0.06% Triton X-100 (0.5 ml/l), pH adjusted to 4.5 using glacial acetic acid). c) 10 μl enzyme solution. This is prepared by diluting 16 ml of a 500 nM enzyme solution into 384 ml of buffer (prepared as above). […]
Counter-ions that a name gives are not always drawn.

Enquiry: Query for Asp-2 (Homo sapiens): what IC50 does the record show for CCc1cn2c3c(cc(C(=O)N[C@@H](Cc4cccc(F)c4)[C@H](O)CNC4CCOCC4)cc13)N(C)S(=O)(=O)CC2 [Example E37, formate salt] ?
Return: < 1000 nM

Enquiry: Record lookup: for Asp-2 (Homo sapiens), what IC50 belongs to CCc1cn2c3c(cc(C(=O)N[C@@H](Cc4ccccc4)[C@H](O)CN[C@@H](C)C(=O)NC4CCCCC4)cc13)N(C)S(=O)(=O)CC2 [Example E105] ?
Return: < 1000 nM

Enquiry: Record lookup: for Asp-2 (Homo sapiens), what IC50 belongs to CCc1cn2c3c(cc(C(=O)N[C@@H](Cc4ccccc4)[C@H](O)CNC4CCCCC4)cc13)N(CC)S(=O)(=O)CC2 [Example E27, formate salt] ?
Return: < 1000 nM

Enquiry: Value wanted: IC50 (Asp-2 (Homo sapiens)) of entry CCc1cn2c3c(cc(C(=O)N[C@@H](Cc4ccccc4)[C@H](O)CNC(C)(C)CCCC(C)C)cc13)N(C)S(=O)(=O)CC2 [Example E10, formate salt]
Return: < 1000 nM

Enquiry: What reported IC50 corresponds to CCc1cn2c3c(cc(C(=O)N[C@@H](Cc4ccccc4)[C@H](O)CNCc4cccc(C)c4)cc13)N(C)S(=O)(=O)CC2 [Example E70, formate salt] on Asp-2 (Homo sapiens)?
Return: < 1000 nM

Enquiry: Find IC50 (Asp-2 (Homo sapiens)) for the entry CCc1cn2c3c(cc(C(=O)N[C@@H](Cc4ccccc4)[C@H](O)CNCc4cnn(CC(F)(F)F)c4)cc13)N(C)S(=O)(=O)CC2 [Example E74, formate salt]
Return: < 1000 nM
